Let's look at some binders and their measured Kd.
Target: T1, mouse zymogen NSP4 (mZ) (mouse, UniProt Q14B24 36-284)
T1 construct: mature; Expressed in CHO cells; also called mZ-NSP4; mZ (NSP4); not shown: N-terminal FLAG tag cleavable by enteropeptidase (cleavage after Asp-Asp-Asp-Asp-Lys)
T1 sequence (looked up): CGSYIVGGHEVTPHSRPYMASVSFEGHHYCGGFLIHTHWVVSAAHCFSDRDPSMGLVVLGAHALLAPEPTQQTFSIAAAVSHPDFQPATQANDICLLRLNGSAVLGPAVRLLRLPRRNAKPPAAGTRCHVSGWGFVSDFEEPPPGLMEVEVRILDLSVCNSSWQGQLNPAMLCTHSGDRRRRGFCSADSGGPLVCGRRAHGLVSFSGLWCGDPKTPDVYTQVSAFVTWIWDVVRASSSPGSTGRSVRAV
Assay: BLI affinity class in summary table

{"binder": "anti-NSP4 antibody 2-1 (antibody, human IgG1, V domains shown, also called clone 2-1) VH: EVQLVESGGGLVQPGGSLRLSCAASGFTFTDYSIHWVRQAPGKGLEWVAEIYPYSGDTYYADSVKGRFTISADTSKNTAYLQMNSLRAEDTAVYYCARDGDGWFDWAMDYWGQGTLVTVSS VL: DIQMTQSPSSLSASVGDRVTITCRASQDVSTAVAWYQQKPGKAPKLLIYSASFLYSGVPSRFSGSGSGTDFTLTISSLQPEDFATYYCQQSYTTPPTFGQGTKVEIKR", "Kd": "< 50 nM"}
{"binder": "anti-NSP4 antibody 2-2 (antibody, human IgG1, V domains shown, also called clone 2-2) VH: EVQLVESGGGLVQPGGSLRLSCAASGFTFSSTAISWVRQAPGKGLEWVGEIYPSDGYTDYADSVKGRFTISADTSKNTAYLQMNSLRAEDTAVYYCARVKWAVSSLGVMDYWGQGTLVTVSS VL: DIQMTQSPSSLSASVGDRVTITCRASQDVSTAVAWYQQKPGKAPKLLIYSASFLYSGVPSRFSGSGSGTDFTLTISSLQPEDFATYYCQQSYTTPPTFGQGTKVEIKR", "Kd": "< 50 nM"}

Return reported Kd; argument: anti-NSP4 antibody 2-3 (antibody, human IgG1, V domains shown, also called clone 2-3) VH: EVQLVESGGGLVQPGGSLRLSCAASGFTFTDSDISWVRQAPGKGLEWVAWISPSDGATDYADSVKGRFTISADTSKNTAYLQMNSLRAEDTAVYYCAHEASDDDYAIDYWGQGTLVTVSS VL: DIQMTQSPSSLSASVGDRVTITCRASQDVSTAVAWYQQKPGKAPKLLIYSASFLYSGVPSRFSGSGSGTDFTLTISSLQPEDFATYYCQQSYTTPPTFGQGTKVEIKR
< 50 nM
